Just for reference, patent US20250313563A1 is where these values come from.

target_or_test_system: GSK3α (GST-full length GSK3α) (Homo sapiens (Human), UniProt P49840)
Sequence (P49840 whole entry): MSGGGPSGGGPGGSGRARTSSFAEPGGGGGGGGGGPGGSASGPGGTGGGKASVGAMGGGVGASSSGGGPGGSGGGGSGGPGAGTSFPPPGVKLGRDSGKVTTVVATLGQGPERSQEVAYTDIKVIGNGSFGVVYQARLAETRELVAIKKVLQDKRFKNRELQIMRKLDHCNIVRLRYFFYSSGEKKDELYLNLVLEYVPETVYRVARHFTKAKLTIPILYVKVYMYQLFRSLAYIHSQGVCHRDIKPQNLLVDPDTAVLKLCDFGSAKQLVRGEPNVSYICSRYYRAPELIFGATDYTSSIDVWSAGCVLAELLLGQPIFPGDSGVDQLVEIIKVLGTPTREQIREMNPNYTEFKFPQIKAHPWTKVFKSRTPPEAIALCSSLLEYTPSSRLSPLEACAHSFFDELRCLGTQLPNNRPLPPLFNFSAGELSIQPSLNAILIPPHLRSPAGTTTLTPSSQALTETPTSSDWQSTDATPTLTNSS
procedure_summary: GSK3α TR-FRET kinase assay
Type: biochemical
experimental_parameters: 1 nM GSK3α, 4 μM ATP, 30 minute preincubation; geometric mean; read-out: GSK3-A TR-FRET BIOCHEMICAL (TR-FRET); GMean; IC50
test_readout: IC50

What measured IC50 is associated with CC[C@]1(c2ccccc2)C2=C(C[C@@H](c3ccccc3)CC2=O)Nc2n[nH]cc21 on GSK3α (GST-full length GSK3α) (Homo sapiens (Human), UniProt P49840)?
0.1 to 1 µM

Param item: CC[C@@]1(c2cccc(-c3ccnn3C)c2)C2=C(CC3(CCCC3)NC2=O)Nc2n[nH]cc21
1 to 5 µM

Param item: CCc1ncc(S(=O)(=O)N2CCC3(CC2)C2=C(CC(C)(C)NC2=O)Nc2n[nH]cc23)s1
≤ 0.1 µM

Param item: CC[C@]1(c2cccc(-c3ccnn3C)c2)C2=C(CC3(CCOCC3)NC2=O)Nc2n[nH]cc21
1 to 5 µM

Param item: CCC1(c2cccc(C(F)(F)F)c2)C2=C(CCN(c3cccnc3)C2=O)Nc2n[nH]cc21 (stereo not shown)
> 5 µM

Param item: CCC1(c2cccc(S(=O)(=O)C3CC3)c2)C2=C(CC(C)(C)NC2=O)Nc2n[nH]c(C(F)(F)F)c21 (stereo not shown) [Compound 947859]
≤ 0.1 µM

Param item: CC[C@@]1(c2ccccc2)C2=C(Nc3n[nH]cc31)[C@@H](C)C[C@H](C)C2=O
> 5 µM
